Test: Cell Viability - LYMP2-018 (AID 985);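 note: compound exposure lasted 24 hr at 37 °C; nearly all actives have a fitted effect of over 50% in size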
Conditions: LYMP2-018 lymphoblastoid cells, viability (qHTS); series mostly up to 92.2 µM
Results filed as inconclusive are left out. The source made the active and inactive calls. Calls come from the whole dose curve; as a rule, active = well fitted cell-killing curve with a large enough effect; inconclusive = small, poorly fitted or top-dose-only effect; inactive = flat fitted curve, though single readings scatter.
Outcomes: active, inactive

Molecule: O=[N+]([O-])C(Br)Br
Group label: active

Molecule: O=[N+]([O-])c1cc(C(F)(F)F)cc([N+](=O)[O-])c1Cl
Group label: active

Molecule: C[C@@H]1CC[C@@]2(OC1)O[C@H]1[C@@H](O)[C@H]3[C@@H]4CC[C@H]5C[C@@H](O[C@@H]6O[C@H](CO)[C@H](O[C@@H]7O[C@H](CO)[C@@H](O)[C@H](O[C@@H]8OC[C@@H](O)[C@H](O)[C@H]8O)[C@H]7O[C@@H]7O[C@H](CO)[C@@H](O)[C@H](O[C@@H]8O[C@H](CO)[C@@H](O)[C@H](O)[C@H]8O)[C@H]7O)[C@H](O)[C@H]6O)[C@H](O)C[C@]5(C)[C@H]4CC[C@]3(C)[C@H]1[C@@H]2C
Group label: active

Molecule: [CH3][Hg][Cl]
Group label: active

Molecule: ClC1=C(Cl)C(Cl)(Cl)C(Cl)=C1Cl
Group label: active

Molecule: c1cc(OCC2CO2)cc(OCC2CO2)c1 (stereo not drawn)
Group label: active

Molecule: C#CCO
Group label: inactive

Molecule: CC(C)CC(C)Nc1ccc(Nc2ccccc2)cc1 (stereo not drawn)
Group label: active
